Entries annotated with measured % of CD161 binding
Assay target: T1, hKLRF2 (human, UniProt D3W0D1 1-207)
T1 construct: Overexpressed on HEK293 cells
T1 sequence: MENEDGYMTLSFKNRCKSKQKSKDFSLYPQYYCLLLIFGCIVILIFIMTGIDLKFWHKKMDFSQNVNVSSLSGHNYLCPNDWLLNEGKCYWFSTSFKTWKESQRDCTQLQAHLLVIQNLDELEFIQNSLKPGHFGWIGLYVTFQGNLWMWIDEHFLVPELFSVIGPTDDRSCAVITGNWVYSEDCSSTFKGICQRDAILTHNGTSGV
Assay info: flow cytometry, HEK293 transfectants, 100 nM antibody;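 further: antibody applied at a saturating level and incubated with cells for 30 min at room temperature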
Entry rule: numbers only, all in %.

Solved entries (count: 3):
| Binder | % of CD161 binding [%] |
| --- | --- |
| Ab7 (antibody, human IgG1, V domains shown, IgG purified from yeast culture) VH: EVQLLESGGGLVQPGGSLRLSCAASGFTFGQYAMSWVRQAPGKGLEWVSAISAAGGTTYYADSVKGRFTISRDNSKNTLYLQMNSLRAEDTAVYYCAKPLDSSQWADFDLWGRGTLVTVSS VL: DIQLTQSPSSVSASVGDRVTITCRASQGISSWLAWYQQKPGKAPKLLIYAASFLQSGVPSRFSGSGSGTDFTLTISSLQPEDFATYYCQQASVLPITFGGGTKVEIK | 0.04 |
| Ab19 (antibody, human IgG1, V domains shown, IgG purified from yeast culture) VH: QVQLVESGGGLVKPGGSLRLSCAASGFTFSQYYMSWIRQAPGKGLEWVSYISPSGATIYYADSVKGRFTISRDNAKNSLYLQMNSLRAEDTAVYYCARSLMATGTHLYFDLWGRGTLVTVSS VL: DIQLTQSPSSVSASVGDRVTITCRASQGISSWLAWYQQKPGKAPKLLIYAASALQSGVPSRFSGSGSGTDFTLTISSLQPEDFATYYCQQVTSAPPYTFGGGTKVEIK | 0.22 |
| Ab3 (antibody, human IgG1, V domains shown, IgG purified from yeast culture) VH: EVQLLESGGGLVQPGGSLRLSCAASGFTFERYAMSWVRQAPGKGLEWVSAISAAGGTTYYADSVKGRFTISRDNSKNTLYLQMNSLRAEDTAVYYCAKPLDSSQWADFDLWGRGTLVTVSS VL: DIQLTQSPSSVSASVGDRVTITCRASQDISSWLAWYQQKPGKAPKFLIYAASALQSGVPSRFSGSGSGTDFTLTISSLQPEDFATYYCQQALVLPITFGGGTKVEIK | -0.007 |

Let's switch to this binder now.
Reported % of CD161 binding for Ab14 (antibody, human IgG1, V domains shown, IgG purified from yeast culture) VH: QVQLVESGGGLVKPGGSLRLSCAASGFTFGQYYMSWIRQAPGKGLEWVSYISPSGATIAYADSVKGRFTISRDNAKNSLYLQMNSLRAEDTAVYYCARSLMSTGTHLYFDLWGRGTLVTVSS VL: DIQLTQSPSSVSASVGDRVTITCRASQGISDWLAWYQQKPGKAPKLLIYAASSLQSGVPSRFSGSGSGTDFTLTISSLQPEDFATYYCQQVTSFPPYTFGGGTKVEIK : what is it?
0.054
